target: Amyloid-beta precursor protein (Homo sapiens, UniProt P05067); assay: Inhibition of HFIP-pretreated amyloid beta (1 to 42 residues) (unknown origin) aggregation after 24 hrs by ThT fluorescence assay
Sequence (P05067 whole entry, the tested form may be a part): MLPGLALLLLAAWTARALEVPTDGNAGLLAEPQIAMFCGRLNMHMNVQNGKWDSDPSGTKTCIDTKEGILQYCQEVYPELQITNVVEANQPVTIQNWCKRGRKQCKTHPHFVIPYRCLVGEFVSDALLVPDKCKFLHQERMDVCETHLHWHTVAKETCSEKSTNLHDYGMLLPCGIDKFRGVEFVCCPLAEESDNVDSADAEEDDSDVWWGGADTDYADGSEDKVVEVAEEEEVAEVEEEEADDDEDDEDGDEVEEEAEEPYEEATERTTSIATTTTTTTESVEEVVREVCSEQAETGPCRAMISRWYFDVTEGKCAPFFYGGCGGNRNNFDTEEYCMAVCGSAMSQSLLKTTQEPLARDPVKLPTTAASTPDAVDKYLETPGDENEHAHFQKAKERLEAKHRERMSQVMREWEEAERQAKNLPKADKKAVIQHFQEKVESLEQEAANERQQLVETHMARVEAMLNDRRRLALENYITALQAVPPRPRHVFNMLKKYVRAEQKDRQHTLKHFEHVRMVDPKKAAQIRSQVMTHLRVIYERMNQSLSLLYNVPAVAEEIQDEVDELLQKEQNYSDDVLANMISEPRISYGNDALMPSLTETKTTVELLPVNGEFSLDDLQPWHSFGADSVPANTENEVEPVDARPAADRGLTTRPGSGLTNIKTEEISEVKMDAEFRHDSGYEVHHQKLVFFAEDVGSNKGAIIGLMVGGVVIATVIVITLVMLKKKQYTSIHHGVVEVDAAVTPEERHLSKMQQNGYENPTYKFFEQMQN

SMILES INPUT	IC50 / µM
c1cc2c(C3CCNCC3)c[nH]c2cc1Nc1ccc2[nH]cc(C3CCNCC3)c2c1	26.6
c1cc2ncc(Nc3ccc4cc[nH]c4n3)cc2[nH]1	23.8
COc1ccc(Nc2ccc3c(C4CCN(C)CC4)c[nH]c3c2)cc1OC	25
CN1CCC(c2c[nH]c3cc(Nc4ccc(F)c(F)c4)ccc23)CC1	48
c1cc2c(C3CCNCC3)c[nH]c2cc1Nc1ccc2c(C3CCNCC3)c[nH]c2n1	25.6
FC(F)(F)c1ccc(Nc2ccc3c(C4CCNCC4)c[nH]c3c2)cn1	24
Fc1ccc(Nc2ccc3c(C4CCNCC4)c[nH]c3n2)cc1F	30
N#Cc1c[nH]c2nc(Nc3ccc4c(C5CCNCC5)c[nH]c4c3)ccc12	17.8
Cn1cc(C2CCNCC2)c2ccc(Nc3ccc(F)c(F)c3)cc21	42
Fc1ccc(Nc2ccc3c(C4CCNCC4)c[nH]c3c2)cc1F	24
CN1CCC(c2c[nH]c3cc(Nc4ccc5[nH]cc(C6CCN(C)CC6)c5c4)ccc23)CC1	15.3
